The reported measurements were obtained from patent US20240217983A1.

- Target: human GPR119 (hGPR119) (Homo sapiens, UniProt Q8TDV5)
- Sequence (Q8TDV5 whole entry): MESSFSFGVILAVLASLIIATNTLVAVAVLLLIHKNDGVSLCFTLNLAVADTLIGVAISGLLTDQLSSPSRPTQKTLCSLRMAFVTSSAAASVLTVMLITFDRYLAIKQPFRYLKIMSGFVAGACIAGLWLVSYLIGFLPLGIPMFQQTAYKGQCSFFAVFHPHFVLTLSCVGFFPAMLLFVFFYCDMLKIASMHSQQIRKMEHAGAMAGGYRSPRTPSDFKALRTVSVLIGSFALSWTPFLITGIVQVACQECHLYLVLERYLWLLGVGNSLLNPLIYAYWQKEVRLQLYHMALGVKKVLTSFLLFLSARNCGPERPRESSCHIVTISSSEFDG
- Procedure summary: cAMP accumulation assay (Cisbio cAMP Gs dynamic HTRF kit) in CHO-K1 cells stably expressing human GPR119
- Condition label: 60 minutes at 37° C., 4-parameter fit
pEC50: −log10 of the molar value.
Measured metric: pEC50

COCc1cnc(N2CCC(CCOCc3ccc(CC(=O)N4CCN(C[C@H](O)[C@@H](O)[C@H](O)[C@H](O)CO)CC4)c(F)c3)CC2)nc1 :: < 5.00
O=C(Cc1ccc(OCCCC2CCN(c3ncc(Cl)cn3)CC2)cc1F)N1CCC2(CN(C[C@H](O)[C@@H](O)[C@H](O)[C@H](O)CO)CCO2)C1 (stereo partly drawn) :: ≥ 7.00

// field: pEC50; key: `O=C(Cc1ccc(OCCCC2CCN(c3ncc(Cl)cn3)CC2)cc1F)N1C[C@H]2CN(C[C@H](O)[C@@H](O)[C@H](O)[C@H](O)CO)C[C@H]2C1` ; value = ≥ 7.00

Short answer for `COCc1cnc(N2CCC(CCCCOc3cc(F)c(CC(=O)N4CCN(C[C@H](O)[C@@H](O)[C@H](O)[C@H](O)CO)CC4)c(F)c3)CC2)nc1` : pEC50 was ≥ 7.00

pEC50 measured on `O=C(Cc1ccc(OCCCC2CCN(c3ncc(Cl)cn3)CC2)cc1F)N1C[C@H]2CCN(C[C@H](O)[C@@H](O)[C@H](O)[C@H](O)CO)[C@H]2C1` = ≥ 7.00

Measured pEC50 of `O=C(Cc1ccc(OCCCC2CCN(c3ncc(Cl)cn3)CC2)cc1F)N1CCC2(CN(C[C@H](O)[C@H](O)[C@H](O)CO)C2)C1` : ≥ 7.00
